# assay: Selectivity index, ratio of CC50 for cytotoxicity against mouse T lymphocytes to IC50 for Immunosuppressive activity in BALB/c mouse splenocytes assessed as reduction in […]-induced mouse B-lymphocytes proliferation
# Assay type: toxicity, cell-based
Below is a list of entries, each paired with its recorded selectivity ratio value.
No unit in the answer, only the number.

Answered cases to consult:
> print(dat)
                                   compound             metric  test.result
1  CC(C)=CCc1ccc(O)c2c1OC1C=C3O[C@H]4OC=C[C@@]4(O)C3=C(O)C1C2=O (some centres undefined)  selectivity ratio         0.94
2  COc1ccc(CCC(C)(C)O)c2c1C(=O)C1C(O)=C3C(=CC1O2)O[C@H]1OC=C[C@@]31O (some centres undefined)  selectivity ratio          1.7

Looking for the measured selectivity ratio of CC(C)(O)CCc1ccc(O)c2c(=O)c3c(O)c4c(cc3oc12)O[C@H]1OC=C[C@@]41O , can you help? 2

###

# assay: Selectivity index, ratio of CC50 for cytotoxicity against mouse T lymphocytes to IC50 for Immunosuppressive activity in BALB/c mouse splenocytes assessed as reduction in […]-induced mouse B-lymphocytes proliferation
# Format: toxicity, cell-based
Below is a list of entries, each paired with its recorded selectivity ratio value.
No unit in the answer, only the number.

Answered cases to consult:
> print(dat)
                                   compound  test.result
1  CC(C)(O)C[C@H](O)c1ccc(O)c2c1OC1C=C3O[C@H]4OC=C[C@H]4C3=C(O)C1C2=O (some centres not stated)          1.1
2  CO[C@@H]1C[C@H]2C3=C(O)C4C(=O)c5c(O)ccc(CCC(C)(C)O)c5OC4C=C3O[C@H]2O1 (some centres not stated)          2.5
3  COC1=C2C(=CC3Oc4c(OC)cc(Cl)c(OC)c4C(=O)C13)O[C@H]1O[C@@H](O)C[C@@H]21 (some centres not stated)          3.1
4  COC1=C2C(=CC3Oc4ccc(Cl)c(OC)c4C(=O)C13)O[C@H]1O[C@H](OC(C)=O)C[C@@H]21 (some centres not stated)          1.4

Looking for the measured selectivity ratio of COC1=C2C(=CC3Oc4c(CCC(C)(C)O)ccc(O)c4C(=O)C13)O[C@H]1OC=C[C@@H]21 (some centres not stated) , can you help? 2.9

###

Below is a list of entries, each paired with its recorded CC50 value.
# assay: Cytotoxicity against mouse B-lymphocytes
# Assay type: toxicity, cell-based, B-cell

> print(dat)
                                   compound  test.result
1  CCCCC[C@H](O)c1c(O)cc2c(c1O)C(=O)C1C(O)=CC(O)=CC1C2=O (stereo partly drawn)      > 40 µM
2  COC1=C2C(=CC3Oc4c(CCC(C)(C)O)ccc(O)c4C(=O)C13)O[C@H]1OC=C[C@@H]21 (stereo partly drawn)        17 µM
3  COc1ccc(CCC(C)(C)O)c2c1C(=O)C1C(O)=C3C(=CC1O2)O[C@H]1OC=C[C@@]31O (stereo partly drawn)        14 µM
4  COC1=C2C(=CC3Oc4ccc(Cl)c(OC)c4C(=O)C13)O[C@H]1O[C@H](OC)C[C@@H]21 (stereo partly drawn)      > 40 µM

Looking for the measured CC50 of COc1c(Cl)ccc2c1C(=O)C1C(O)=C3C(=CC1O2)O[C@H]1OC=C[C@@]31O (stereo partly drawn) , can you help? > 40 µM

Looking for the measured CC50 of CC(C)(O)C[C@H](O)c1ccc(O)c2c1OC1C=C3O[C@H]4OC=C[C@H]4C3=C(O)C1C2=O (stereo partly drawn) , can you help? 8.1 µM

Looking for the measured CC50 of CO[C@@H]1C[C@H]2C3=C(O)C4C(=O)c5c(O)ccc(CCC(C)(C)O)c5OC4C=C3O[C@H]2O1 (stereo partly drawn) , can you help? 12 µM

Looking for the measured CC50 of CC(C)(O)C[C@H](O)c1ccc(O)c2c1OC1C=C3O[C@H]4OC=C[C@@]4(O)C3=C(O)C1C2=O (stereo partly drawn) , can you help? 16 µM

Looking for the measured CC50 of COC1=C2C(=CC3Oc4ccc(Cl)c(OC)c4C(=O)C13)O[C@H]1O[C@@H](OC)C[C@@H]21 (stereo partly drawn) , can you help? > 40 µM

Looking for the measured CC50 of CC(C)(O)CCc1ccc(O)c2c(=O)c3c(O)c4c(cc3oc12)O[C@H]1OC=C[C@@]41O , can you help? 7.8 µM

Looking for the measured CC50 of COC1=C2C(=CC3Oc4c(OC)cc(Cl)c(OC)c4C(=O)C13)O[C@H]1O[C@@H](O)C[C@@H]21 (stereo partly drawn) , can you help? 31 µM

Looking for the measured CC50 of COc1cc(OC)c2c(c1)C(=O)C1C=C3O[C@@]4(C)CC[C@H](O)[C@H](O4)C3=C(O)C1C2=O (stereo partly drawn) , can you help? > 40 µM

Looking for the measured CC50 of CC(C)(O)CCc1ccc(O)c2c1OC1C=C3O[C@H]4OCC[C@H]4C3=C(O)C1C2=O (stereo partly drawn) , can you help? 5.2 µM

Looking for the measured CC50 of CO[C@H]1C[C@H]2C3=C(O)C4C(=O)c5c(O)ccc(CCC(C)(C)O)c5OC4C=C3O[C@H]2O1 (stereo partly drawn) , can you help? 15 µM

Looking for the measured CC50 of CO[C@@H]1C[C@@]2(O)C3=C(O)C4C(=O)c5c(O)ccc(CCC(C)(C)O)c5OC4C=C3O[C@H]2O1 (stereo partly drawn) , can you help? 7.7 µM

Looking for the measured CC50 of COC1=C2C(=CC3Oc4c(OC)cc(Cl)c(OC)c4C(=O)C13)O[C@H]1OC=C[C@@H]21 (stereo partly drawn) , can you help? 12 µM

These entries and their values trace back to ChEMBL document CHEMBL5335833.
